Molecular target: Sodium-dependent dopamine transporter (Homo sapiens, UniProt Q01959)
Sequence (Q01959 whole entry): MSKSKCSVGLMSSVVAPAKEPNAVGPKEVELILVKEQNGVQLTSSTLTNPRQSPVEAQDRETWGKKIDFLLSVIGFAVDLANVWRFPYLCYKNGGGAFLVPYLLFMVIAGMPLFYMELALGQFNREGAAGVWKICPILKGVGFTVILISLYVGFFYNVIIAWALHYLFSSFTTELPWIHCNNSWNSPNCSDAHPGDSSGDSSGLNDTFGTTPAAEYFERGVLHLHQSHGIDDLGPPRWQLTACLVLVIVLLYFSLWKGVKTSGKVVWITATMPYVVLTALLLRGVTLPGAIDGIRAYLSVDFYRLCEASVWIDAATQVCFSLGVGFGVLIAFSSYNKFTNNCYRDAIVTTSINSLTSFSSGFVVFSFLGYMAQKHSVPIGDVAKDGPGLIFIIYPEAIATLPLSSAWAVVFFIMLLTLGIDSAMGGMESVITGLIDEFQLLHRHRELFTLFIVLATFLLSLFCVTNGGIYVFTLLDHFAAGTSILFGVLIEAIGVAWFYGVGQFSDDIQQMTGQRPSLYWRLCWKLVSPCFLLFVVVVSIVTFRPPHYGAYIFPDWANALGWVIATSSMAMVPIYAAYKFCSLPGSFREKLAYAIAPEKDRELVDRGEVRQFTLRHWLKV
Assay: Inhibition of [3H]dopamine uptake at human DAT expressed in HEK293 cells after 15 to 20 mins by microbeta scintillation counting method
Format: cell-based
READOUT_KIND: IC50

# compound O=C(NCCCN1CCN(c2cccc(Cl)c2Cl)CC1)c1ccc2ccccc2c1 ; its IC50 = > 10 µM

====

Target: Sodium-dependent serotonin transporter (Homo sapiens, UniProt P31645)
Details: HEK293, at 1 µM
Sequence (P31645 whole entry, looked up): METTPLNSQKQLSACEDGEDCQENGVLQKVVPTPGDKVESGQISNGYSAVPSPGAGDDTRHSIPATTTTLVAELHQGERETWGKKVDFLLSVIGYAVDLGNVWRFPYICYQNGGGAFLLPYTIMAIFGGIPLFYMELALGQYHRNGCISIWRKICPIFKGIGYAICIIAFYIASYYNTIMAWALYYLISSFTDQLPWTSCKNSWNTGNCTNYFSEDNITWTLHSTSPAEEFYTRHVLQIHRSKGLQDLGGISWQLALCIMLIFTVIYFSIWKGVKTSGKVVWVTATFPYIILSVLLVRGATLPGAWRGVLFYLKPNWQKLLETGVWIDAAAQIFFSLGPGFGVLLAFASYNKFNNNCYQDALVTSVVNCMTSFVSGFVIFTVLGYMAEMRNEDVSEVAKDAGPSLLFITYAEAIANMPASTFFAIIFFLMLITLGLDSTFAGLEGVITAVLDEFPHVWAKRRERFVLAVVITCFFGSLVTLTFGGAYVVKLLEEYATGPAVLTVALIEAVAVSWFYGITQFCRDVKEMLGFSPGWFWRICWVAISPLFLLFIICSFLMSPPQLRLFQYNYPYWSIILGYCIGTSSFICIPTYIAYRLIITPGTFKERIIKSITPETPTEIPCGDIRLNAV
Description: Inhibition of [3H]serotonin uptake at human SERT expressed in HEK293 cells at 1 uM after 15 to 20 mins by microbeta scintillation counting method
Lab note: anything with inhibition at or over 30% counts as Yes; the rest go in No.

Previously resolved entries follow.
c1ccc(N2CCN(CCCOc3ccc4ccccc4c3)CC2)nc1    Yes
Clc1cccc(N2CCN(CCOc3ccc4ccccc4c3)CC2)c1Cl    No
Cc1cccc(C)c1N1CCN(CCCOc2ccc3ccccc3c2)CC1    Yes
Brc1ccc(N2CCN(CCOc3ccc4ccccc4c3)CC2)cc1    No

hey, is inhibition for this one >= 30%? Clc1cccc(N2CCN(CCCCOc3ccc4ccccc4c3)CC2)c1Cl Yes

Dear colleague, could you confirm whether Clc1ccc(N2CCN(CCOc3ccc4ccccc4c3)CC2)cc1 has inhibition at or above 30%? No

In plain terms: is recorded inhibition at least 30% for Fc1ccc(N2CCN(CCCOc3ccc4ccccc4c3)CC2)cc1 ? Yes

Check if inhibition >= 30% (inclusive). Item: Cc1cccc(C)c1N1CCN(CCCCOc2ccc3ccccc3c2)CC1 Yes

Please check the record c1ccc(CC2CCN(CCOc3ccc4ccccc4c3)CC2)cc1 and state if its inhibition is at or above 30%. No

Please tell me: is the molecule c1ccc(N2CCN(CCCCOc3ccc4ccccc4c3)CC2)cc1 at or over 30% in terms of inhibition? Yes

Given Clc1ccc(N2CCN(CCCCOc3ccc4ccccc4c3)CC2)cc1 , state whether its inhibition is at least 30%. Yes

Is it the case that Brc1ccc(N2CCN(CCCCOc3ccc4ccccc4c3)CC2)cc1 has inhibition reaching or exceeding 30%? Yes

====

Target: Sodium-dependent noradrenaline transporter (Homo sapiens)
Sequence (P23975 whole entry): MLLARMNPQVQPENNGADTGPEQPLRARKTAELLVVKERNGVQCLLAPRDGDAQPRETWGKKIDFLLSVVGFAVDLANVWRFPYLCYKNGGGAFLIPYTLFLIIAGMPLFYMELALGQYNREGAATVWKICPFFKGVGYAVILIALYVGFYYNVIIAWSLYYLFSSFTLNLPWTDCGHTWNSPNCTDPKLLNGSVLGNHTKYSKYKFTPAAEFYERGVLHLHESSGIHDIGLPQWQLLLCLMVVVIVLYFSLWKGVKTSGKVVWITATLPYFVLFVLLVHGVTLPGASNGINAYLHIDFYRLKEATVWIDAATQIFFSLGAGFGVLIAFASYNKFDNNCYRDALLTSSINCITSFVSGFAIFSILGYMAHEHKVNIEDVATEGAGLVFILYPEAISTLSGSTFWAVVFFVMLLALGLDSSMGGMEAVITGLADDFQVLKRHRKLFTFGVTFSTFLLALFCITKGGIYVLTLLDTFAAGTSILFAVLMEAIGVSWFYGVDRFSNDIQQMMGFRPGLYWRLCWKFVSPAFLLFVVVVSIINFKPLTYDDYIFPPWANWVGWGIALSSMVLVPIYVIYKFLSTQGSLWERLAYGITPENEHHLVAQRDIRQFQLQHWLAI
Assay: Inhibition of [3H]norepinephrine uptake at human NET expressed in HEK293 cells after 15 to 20 mins by microbeta scintillation counting method
Assay type: cell-based
# IC50 annotations
Returns: string containing the numeric result and its unit.

# count of solved cases: 3
c1ccc(N2CCN(CCOc3ccc4ccccc4c3)CC2)nc1    23.8 µM
Clc1ccc(N2CCN(CCCCOc3ccc4ccccc4c3)CC2)c(Cl)c1    9.74 µM
Fc1ccc(N2CCN(CCOc3ccc4ccccc4c3)CC2)cc1    5.13 µM

In plain terms, COc1ccccc1N1CCN(CCCOc2ccc3ccccc3c2)CC1 has a documented IC50 of 1.2 µM

The compound identified as Brc1ccc(N2CCN(CCCCOc3ccc4ccccc4c3)CC2)cc1 registered its IC50 at 25.9 µM

The compound identified as Fc1ccc(N2CCN(CCCCOc3ccc4ccccc4c3)CC2)cc1 registered its IC50 at 3.71 µM

Value of measured IC50 for the entry c1ccc(CC2CCN(CCCOc3ccc4ccccc4c3)CC2)cc1 : 2.54 µM

====

Molecular target: Sodium-dependent serotonin transporter (Homo sapiens)
Test: Inhibition of [3H]serotonin uptake at SERT (unknown origin)
Sequence (P31645 whole entry): as the sequence (P31645 whole entry, looked up) above
READOUT_KIND: pIC50
The read-out pIC50 is expressed as -log10 of concentration in moles per litre.

pIC50 for O=C(NCCCN1CCC(Cc2ccccc2)CC1)c1ccc2ccccc2c1 is 7.00
